Ref: patent US20050171172A1

# assay-system: UniProtKB P09619
# Sequence (P09619 33-1106): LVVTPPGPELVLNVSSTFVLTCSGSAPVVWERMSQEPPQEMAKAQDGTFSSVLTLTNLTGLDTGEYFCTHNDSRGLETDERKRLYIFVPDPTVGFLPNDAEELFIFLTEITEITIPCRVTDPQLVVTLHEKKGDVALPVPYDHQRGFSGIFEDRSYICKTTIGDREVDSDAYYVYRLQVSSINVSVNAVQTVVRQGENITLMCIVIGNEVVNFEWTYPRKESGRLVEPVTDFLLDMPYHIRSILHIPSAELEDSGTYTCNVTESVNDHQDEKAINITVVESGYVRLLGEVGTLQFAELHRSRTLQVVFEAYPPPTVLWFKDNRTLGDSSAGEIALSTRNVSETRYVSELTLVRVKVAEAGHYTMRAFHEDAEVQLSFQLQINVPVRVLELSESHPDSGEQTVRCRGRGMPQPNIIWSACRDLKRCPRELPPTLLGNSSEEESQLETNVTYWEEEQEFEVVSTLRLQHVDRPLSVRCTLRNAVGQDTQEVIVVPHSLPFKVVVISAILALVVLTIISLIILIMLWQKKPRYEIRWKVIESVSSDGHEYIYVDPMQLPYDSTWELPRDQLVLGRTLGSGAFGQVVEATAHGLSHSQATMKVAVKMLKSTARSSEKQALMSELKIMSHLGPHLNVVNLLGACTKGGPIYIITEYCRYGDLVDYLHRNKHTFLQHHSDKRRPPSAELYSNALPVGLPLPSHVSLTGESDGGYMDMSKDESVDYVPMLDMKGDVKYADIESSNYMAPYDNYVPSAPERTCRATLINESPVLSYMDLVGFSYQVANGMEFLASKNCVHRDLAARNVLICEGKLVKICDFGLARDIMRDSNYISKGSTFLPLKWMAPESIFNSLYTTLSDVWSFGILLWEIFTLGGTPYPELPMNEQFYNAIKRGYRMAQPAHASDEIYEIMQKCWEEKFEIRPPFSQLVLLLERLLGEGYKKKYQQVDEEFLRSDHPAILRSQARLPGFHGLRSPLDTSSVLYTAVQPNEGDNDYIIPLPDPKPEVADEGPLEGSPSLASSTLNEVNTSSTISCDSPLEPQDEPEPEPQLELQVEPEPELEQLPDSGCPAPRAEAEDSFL
pKd: −log10 of the molar value.
attribute-measured: pKd

molecule-smiles: CSc1ncc(Br)c(C(=O)Nc2ccc(CC(=O)Nc3cc(C(C)(C)C)on3)cc2)n1
assay-system: UniProtKB P09619
pKd: > 7.00
--
molecule-smiles: COc1cccc2cc([C@H](C)C(=O)Nc3cc(C(C)(C)C)on3)ccc12
assay-system: UniProtKB P09619
pKd: 6.00 to 7.00
--
molecule-smiles: Cc1nn(C)c(Cl)c1C(=O)Nc1ccc(CC(=O)Nc2cc(C(C)(C)C)on2)cc1
assay-system: UniProtKB P09619
pKd: 6.00 to 7.00
--
molecule-smiles: CC(C)(C)c1cc(NC(=O)Sc2ccc(Cl)cc2)no1
assay-system: UniProtKB P09619
pKd: < 5.00
--
molecule-smiles: CC(C)(C)c1cc(NC(=O)Cc2ccc(Br)cc2)on1
assay-system: UniProtKB P09619
pKd: > 7.00
--
molecule-smiles: COc1ccc(CC(=O)Nc2cc(C(C)(C)C)no2)cc1
assay-system: UniProtKB P09619
pKd: > 7.00

Asked: Name the recorded pKd of `CC(C)(C)c1cc(NC(=O)Cc2ccc(Cl)cc2)on1` , assay system UniProtKB P09619.
Given back: 6.00 to 7.00
